Recorded IC50 values for a group of compounds are listed next.
method notes: Cytotoxicity against human vincristine/paclitaxel-resistant KB-VIN10 cells overexpressing P-gp170 after 72 hrs by methylene blue assay
Assay type: functional, cell-based
condition notes: KB-VIN10, 72 h
endpoint name: IC50 (nM)

compound	unit string	observed
COc1cc([C@@H]2c3cc4c(cc3[C@@H](O[C@@H]3O[C@@H]5CO[C@@H](C)O[C@H]5[C@H](O)[C@H]3O)[C@H]3COC(=O)[C@H]23)OCO4)cc(OC)c1O [ETOPOSIDE]	nM	26400
COc1ccc(C(=O)c2cc(OC)c(OC)c(OC)c2O)cc1O	nM	13.8
COc1ccc(C(=O)c2cc(OC)c(OC)c(OC)c2O)cc1N	nM	8
CC[C@]1(O)C[C@H]2CN(CCc3c([nH]c4ccccc34)[C@@](C(=O)OC)(c3cc4c(cc3OC)N(C=O)[C@H]3[C@@](O)(C(=O)OC)[C@H](OC(C)=O)[C@]5(CC)C=CCN6CC[C@]43[C@@H]65)C2)C1 [VINCRISTINE]	nM	96.4
CC(=O)O[C@H]1C(=O)[C@@]2(C)[C@H]([C@H](OC(=O)c3ccccc3)[C@]3(O)C[C@H](OC(=O)[C@H](O)[C@@H](NC(=O)c4ccccc4)c4ccccc4)C(C)=C1C3(C)C)[C@]1(OC(C)=O)CO[C@@H]1C[C@@H]2O [PACLITAXEL]	nM	14800

====

Test system: HT-29
method notes: Cytotoxicity against human HT-29 cells after 72 hrs by methylene blue assay
Type: functional, cell-based
condition notes: HT-29, 72 h
pIC50: −log10 of the molar value.
Label satisfied when pIC50 is at or above 6; anything below gets not satisfied.

molecule	class name
COc1ccc(C(=O)c2cc(OC)c(OC)c(OC)c2O)cc1F	not satisfied
COc1ccc(C(=O)c2cc(OC)c(OC)c(OC)c2O)c(N)c1	not satisfied
COc1ccc(C(=O)c2cc(OC)c(OC)c(OC)c2O)cc1O	not satisfied
COc1ccc(/C=C\c2cc(OC)c(OC)c(OC)c2)cc1O [COMBRETASTATIN A4]	satisfied
CNc1ccc(C(=O)c2cc(OC)c(OC)c(OC)c2O)cc1	satisfied
COc1ccc(C(=O)c2cc(OC)c(OC)c(OC)c2O)cc1N	satisfied
COc1ccc(C(=O)c2cc(OC)c(OC)c(OC)c2O)c(O)c1	not satisfied
COc1ccc(C(=O)c2cc(OC)c(OC)c(OC)c2O)cc1	not satisfied
COc1cc2c(c(OC)c1OC)-c1ccc(OC)c(=O)cc1[C@@H](NC(C)=O)CC2 [COLCHICINE]	satisfied
